- System: BT-549 breast
- EXPERIMENT: NCI tumour cell line growth inhibition, 48 h; in the data active = GI50 below about 0.43 µM; inactive = the rest
Possible outcomes: Y for active, N for inactive

| COMPOUND | QUALITATIVE_LABEL |
| --- | --- |
| CCN(CC)C(=O)CCCCCn1c2ccccc2c2c3c(c4c5ccccc5[nH]c4c21)C(=O)N(O)C3=O | N |
| COC(=O)C1=Nc2ccc(F)cc2/C1=C/c1sc(=S)[nH]c1O | Y |
| Nc1ccn([C@@H]2S[C@H](CO)[C@@H](O)[C@@H]2F)c(=O)n1 | N |
| Cc1ccc(-c2nc(C(Cl)Cl)nc3cc(C)nn23)cc1 | N |
| N#Cc1cccc(C2C3=C(COC3=O)N(CCO)c3cc4c(cc32)CCC4)c1 (stereo not given) | Y |

###

Reported TGI values for a set of compounds
- Tested on: UO-31 renal
- EXPERIMENT: NCI tumour cell line growth inhibition, 48 h
Where a SMILES comes first, the peptide text is derived from it. The star is where a group is joined. Boc = CC(C)(C)OC(=O)*; tBu = CC(C)(C)*

| COMPOUND | TARGET_SYSTEM | TGI |
| --- | --- | --- |
| Cc1cc(NS(=O)(=O)c2ccc(NC(=O)c3ccc4nc5ccccc5c(Nc5ccc(S(=O)(=O)Nc6cc(C)on6)cc5)c4c3)cc2)no1 | UO-31 renal | > 50 µM |
| N/C(=N\N=C/c1cc([N+](=O)[O-])cc([N+](=O)[O-])c1O)NO | UO-31 renal | > 100 µM |
| CCOC(=O)n1c2ccccc2c(=O)n1CCO | UO-31 renal | > 100 µM |
| COc1cc(OC)c(/C=C/C(=O)c2c(N)cc(OC)cc2OC)c(OC)c1 | UO-31 renal | > 100 µM |
| CC(OC(C)(C)C)C(NC(=O)C(N)CCCCNC(=O)OC(C)(C)C)C(=O)NC(Cc1ccccc1)C(=O)O (stereo not given) (H-Lys(Boc)-Thr(tBu)-Phe-OH; configuration not given here) | UO-31 renal | > 100 µM |

###

Reported TGI values for a set of molecules
- System: IGROV1 ovarian
- EXPERIMENT: NCI tumour cell line growth inhibition, 48 h

| MOLECULE | TGI |
| --- | --- |
| O=c1c2cccc3cccc(c4n1CCCN=4)c32 | > 100 µM |
| N#C[C@H](C(=O)c1ccccc1F)c1nc2ccccc2[nH]1 | > 100 µM |
| Cc1c(C)c2ccc(OC(C)C(=O)O)cc2oc1=O (stereo not drawn) | > 100 µM |

###

Reported TGI values for a set of compounds
- Test system: IGROV1 ovarian
- EXPERIMENT: NCI tumour cell line growth inhibition, 48 h

| COMPOUND | OPERATOR_SYMBOL | TGI, µM |
| --- | --- | --- |
| CC1=C(C(=O)CC(=O)C(=O)Nc2ccccc2C)Sc2ccccc2N1 | > | 100 |
| O=C1C2C(C(=O)N1CC[Se][Se]CCN1C(=O)C3C(C1=O)[C@H]1C=C[C@@H]3C1)[C@H]1C=C[C@@H]2C1 (stereo partly drawn) | = | 0.556 |
| COC(=O)[C@]1(C)[C@H]2C[C@H]3O[C@H]4[C@H](O)[C@@H](O)OC(CC(O)C(C5=CC(=O)OC5)C(C5=CC(=O)OC5)C(O)CC56CCCCC7[C@@H](C)[C@H](C[C@H]8[C@](C)(C(=O)OC)[C@H](O)CC[C@]78C)O[C@H]([C@@H](O)[C@H](O)O5)[C@H]6O)(CCCCC([C@@H]3C)[C@]2(C)CC[C@@H]1O)[C@H]4O (stereo partly drawn) | = | 1.2 |
